# Tested on: NCI-H460 lung
Outcomes: active, inactive

* CC(C)(C)c1cc(C(C)(C)C)cc(S(=O)(=O)Nc2cc3ccccc3cc2C(=O)NCCN)c1 | inactive
* CC(C)n1nc(-c2cc3cc(O)ccc3[nH]2)c2c(N)ncnc21 | active
* O=C1OC(C(O)CO)C(=O)C1=O (configuration not stated) | inactive
* CCCCCCCC/C=C/CCCCCCCC(=O)OC[C@H]1O[C@@H](n2ccc(N)nc2=O)C(F)(F)[C@@H]1O | active
* CNc1ccc(C(=O)CC(O)CCC(C)C2OC(=O)CC(O)CC(=O)CC(O)CC(O)CC(O)CC(O)CC3(O)CC(O)C(C(=O)OC)C(CC(O[C@@H]4O[C@H](C)[C@@H](O)[C@H](N)[C@@H]4O)/C=C/C=C/C=C/C=C/C=C/C=C/C=C/C2C)O3)cc1 (some centres not stated) | inactive
* COc1cc2c3c(n(CCCNC(=O)OCC4c5ccccc5-c5ccccc54)c(=O)c2cc1OC)-c1cc2c(cc1/C3=C\CCNC(=O)OCC1c3ccccc3-c3ccccc31)OCO2 | inactive
* O=C(N/N=C/c1ccc(Cl)cc1)c1ccc(C(F)(F)F)nc1Nc1cccc(C(F)(F)F)c1 | inactive

* * *

# Test system: EKVX NSCLC
# testDetails: NCI tumour cell line growth inhibition, 48 h
Listed here are compounds together with their documented TGI.
assayReadout: TGI

* COc1ccc(-c2n[nH]nc2-c2cc(OC)c(OC)c(OC)c2)cc1 | 29.6 µM
* CCOc1cn(C2CC(O)C(CO)O2)c(=O)[nH]c1=O (configuration not stated) | > 100 µM
* O=C1/C(=N/O)Cc2c(Br)ccc(Br)c21 | > 100 µM
* C[N+](C)(C)CC1CCCCCCCCCCC1=O (configuration not stated) | > 100 µM
* CCOC(=O)[C@@H](N)CCC(=O)N[C@@H](CSCc1ccccc1)C(=O)N[C@@H](C(=O)OCC)c1ccccc1 | > 73.3 µM
* COC1=CC(=O)c2nc(-c3cccc(C)n3)[nH]c2C1=O | > 100 µM
* c1ccc(CNn2nnc3ccccc32)cc1 | > 100 µM
* O=C(O)Cc1cccc2c(=O)c3ccccc3oc12 | > 100 µM
* O=C(NCCCNCCCNC(=O)c1cc(-c2ccccc2)nc2ccccc12)c1cc(-c2ccccc2)nc2ccccc12 | 3.32 µM
* c1ccc2c(c1)ccn2CCc1c[nH]c2ccccc12 | > 10 µM
* NS(=O)(=O)c1ccc(NC2(C(=O)O)CCCC2)cc1 | > 100 µM
* Nc1cc2[nH]c(=O)c(=O)[nH]c2cc1N | > 100 µM
* C1=CC2SSSC2C1 (configuration not stated) | > 100 µM
* CSc1ccc2c(cc1=O)[C@@H](NC(=O)c1ccc(N)cc1)CCc1cc(O)c(O)c(O)c1-2 | > 100 µM
* C[C@@]12CC=C3c4nc(Nc5cccc(O)c5)sc4CC[C@]3(C)[C@H]1CC[C@]1(C)C(=O)CC[C@@H]21 | 83.3 µM
* COC(=O)C1=CNC=C(C(=O)OC)C1C1=CC(=O)C(C)=CC1=O | 30 µM
* O=c1cc(-c2ccc(F)cc2)[nH]c2ncc(Cl)cc12 | > 100 µM
* CCOC(=O)C(=Cc1[nH]c2ccccc2c1-c1c[nH]c2ccccc12)C(=O)OCC | 31.8 µM
* O=Cc1c(C(=O)O)[nH]c(=O)[nH]c1=O | > 100 µM
* Cc1ccc(-c2c(C#N)c(-c3ccc(Cl)cc3)c(C#N)c(=O)n2NS(=O)(=O)c2ccc(C)cc2)cc1 | > 100 µM
* C[C@@H]1CC(=O)C2CCCC1C2=O (some centres not stated) | > 100 µM
* CCOP(C)(=O)C(N)Cc1ccc(OC)c(OC)c1 (configuration not stated) | > 100 µM
* Cc1cc(C(=O)Nc2ncc(Cc3cccc(C(F)(F)F)c3)s2)c2ccccc2n1 | > 100 µM
* COc1ccc(C2OC[C@H]3O[C@@H](OCc4ccccc4)[C@H](O)[C@@H](O)[C@@H]3O2)cc1 (some centres not stated) | > 100 µM
* Cc1cc(S(=O)(=O)N=C2N(Cc3ccccc3)CCN2Cc2ccccc2)c(S)cc1Cl | > 100 µM
* COc1nc2ccccc2cc1-c1nc2c(cnn2-c2ccc(Br)cc2)c(=O)[nH]1 | > 50 µM
* CN1c2ccc(Cl)cc2C(=O)NC1c1ccc([N+](=O)[O-])s1 (configuration not stated) | 57.8 µM
* Cc1cccc(NC(=O)/C(=N\NC(C)(C)C)C2NC(=S)NC2=O)c1C (configuration not stated) | > 100 µM
* NC(N)=NCCC[C@H](N)C(=O)NCC(=O)N[C@@H](CC(=O)O)c1ncc(NC(=O)C(F)(F)F)o1 | > 25 µM
* CC1OC(OC2C(O[C@H]3CC[C@@]4(C)C(=CC[C@H]5[C@@H]6C[C@@H]7O[C@]8(CC[C@@H](CO)CO8)[C@@H](C)[C@@H]7[C@@]6(C)CC[C@@H]54)C3)OC(CO)C(O)C2OC2OC(CO)C(O)C(O)C2O)C(O)C(O)C1O (some centres not stated) | 3.96 µM
* CC1(C)C(=O)N(CCCCCCN2C(=O)C(C)(C)c3ccccc32)c2ccccc21 | > 100 µM
* COc1ccccc1/C=C1\SC(=S)N(/C=C2\C(=O)Oc3ccccc3C2=O)C1=O | 60.2 µM
* COc1ccc(Cn2cc3c(c2-c2ccccc2)CC(C)(C)c2cnoc2-3)cc1 | > 100 µM
* Cc1ccc(C2=C(c3ccccc3)C(Br)(c3ccc(C)cc3)C(c3ccccc3)=C2c2ccc(C)cc2)cc1 | > 100 µM
* CCC[CH2][Sn]1([CH2]CCC)[O]CC(CN2CCCC2)[O]1 (configuration not stated) | 33.2 µM
* COc1cc(CNCc2cc(OC)c(OC)c(OC)c2)cc(OC)c1OC | > 10 µM
* CCOC(=O)CNc1c(OCc2ccccc2)c(=O)c1=O | > 100 µM
* CC12C(=O)CC(CC1=O)C2(C)C | > 100 µM
* CCOc1ccccc1N=Nc1ccc2oc(=O)c(C(=O)Nc3cccc(C)c3)cc2c1 | 95.2 µM
* O=c1[nH]nc(-c2ccccc2)c2[nH]c3c4ccccc4ccc3c12 | > 100 µM
* NN/C(=N\S(=O)(=O)c1cc2ccccc2s1)Nc1ccc(Cl)cc1 | 42.2 µM
* CSc1ncnc2c1ncn2C1CC(Oc2ccc(C)cc2)C(COc2ccc(C)cc2)O1 (configuration not stated) | > 100 µM

Attribution: PubChem BioAssay (NCI)
